Tested on: Fibroblast
Test: Multiplex assay against human fibroblast
Assay type: toxicity, cell-based
Details: 24 h, 1 µM, compound concentration 1 uM, replicate 2
So I've got a bunch of compounds here, and I need their Population Mitochondria Different-Phenotype (%) values.
One number for each entry, in %.

Worked examples follow.
// Population Mitochondria Different-Phenotype (%) lookup, compound = `CCCCN(CC)c1nc(C)nc2c1c(C)cn2-c1c(C)cc(C)cc1C.Cl` , result: 6

GET /value?item= `CC[C@H](Nc1ncnc2[nH]cnc12)c1nc2cccc(F)c2c(=O)n1-c1ccccc1` &field=Population Mitochondria Different-Phenotype (%) returns 25

The recorded Population Mitochondria Different-Phenotype (%) for entry `CN(c1cc(C(F)(F)F)nc(OCCC(=O)O)n1)c1cccc2c1CCC2` equals 13

Please state Population Mitochondria Different-Phenotype (%) for every compound in the list that follows.
1. NC(=O)c1ccc2nc(-c3ccc(C4(N)CCC4)cc3)c(-c3ccccc3)n2n1
2. CCCCCNC(=N)N/N=C/c1c[nH]c2ccc(OC)cc12.O=C(O)/C=C\C(=O)O [TEGASEROD MALEATE]
3. Cc1ccc(S(=O)(=O)NC2c3ccccc3Oc3ccccc32)cc1
4. Cc1c(Nc2ccc(S(=O)(=O)N3CCN(C)CC3)cc2F)nc2ccc(Nc3cnn(C4CC4)c3)cn2c1=O
5. Cc1c(P(=S)(c2ccccc2)c2ccccc2)n2ccccc2[n+]1C/C=C/c1ccccc1.[Br-]
6. Cc1c(Nc2ccc(S(=O)(=O)N3CCN(C)CC3)cc2F)nc2ccc(-c3cnn(C4CC4)c3)cn2c1=O

1. 11
2. 21
3. 15
4. 0
5. 31
6. 12

---

Tested on: Fibroblast
Assay: Incucyte cell viability with human fibroblast; also: filed as whole numbers so only -1 and 0 and 1 occur
Format: toxicity, cell-based
Conditions: 18 h, 10 µM, compound concentration 10 uM, replicate number 1, timepoint 18 hours
Provide the recorded Growth Rate for the entries that follow.
Give bare numbers.

Example entries and their recorded answers appear below.
response.value for O=C(NNS(=O)(=O)c1ccccc1)c1cc(-c2ccnnc2)ccc1F [WM-2474] (field: Growth Rate) = 1

Sample C[C@@H](NC(=O)Nc1cc2[nH]ncc2c(CO)n1)c1ccccc1 [ERKi] ; Growth Rate observed: 1

// sample CCN(CCO)CCCOc1ccc2c(Nc3cc(CC(=O)Nc4cccc(F)c4)[nH]n3)ncnc2c1 [DEFOSBARASERTIB] , its Growth Rate was 0

The recorded Growth Rate for `CN1CCN(Cc2ccc(-c3cnc4[nH]cc(-c5ccc6[nH]ccc6c5)c4c3)cc2)CC1` is 0

# Growth Rate of c1cc(CN2CCCNCCNCCCNCC2)ccc1CN1CCCNCCNCCCNCC1 [PLERIXAFOR] = 1

Take each entry in turn and give its Growth Rate.
1. CN(c1cc(C(F)(F)F)nc(OCCC(=O)O)n1)c1cccc2c1CCC2
2. COc1cc(C)c(Sc2cnc(NC(=O)c3ccc(CNC(C)C(C)(C)C)cc3)s2)cc1C(=O)N1CCN(C(C)=O)CC1 (stereo not given)

0
0

---

Would you mind telling me the reported Population Membrane Permeable-Phenotype (%) of each entry?
Tested on: Fibroblast
Test: Multiplex assay against human fibroblast
Assay type: toxicity, cell-based
Details: 12 h, 10 µM, compound concentration 10 uM, replicate 2
Numbers only, in %.

Sample answers from the record:
Considering `Cl.NC[C@@H]1O[C@H](C23CC4CC(CC(C4)C2)C3)Cc2c1ccc(O)c2O` , its Population Membrane Permeable-Phenotype (%) with Fibroblast was recorded as 9

Record for CC[C@@H]1C(=O)N(C)c2cnc(Nc3ccc(C(=O)NC4CCN(C)CC4)cc3OC)nc2N1C1CCCC1 [BI-2536] under target or system Fibroblast: Population Membrane Permeable-Phenotype (%) reported as 3

Measured on Fibroblast, `C=CC(=O)Nc1cc(-n2c(=O)ccc3cnc4ccc(-c5ccc(NS(C)(=O)=O)cc5)cc4c32)ccc1C` has a documented Population Membrane Permeable-Phenotype (%) of 12

Tested system Fibroblast; Population Membrane Permeable-Phenotype (%) recorded for `CCCc1cc(C)[nH]c(=O)c1CNC(=O)c1cc(-c2ccc(N3CCN(C(C)C)CC3)nc2)cc2c1cnn2C(C)C` was 79

Sample `CCCCN(CC)c1nc(C)nc2c1c(C)cn2-c1c(C)cc(C)cc1C.Cl` , system: Fibroblast. Its Population Membrane Permeable-Phenotype (%) is 4

Summary: `Cc1ccc(S(=O)(=O)NC2c3ccccc3Oc3ccccc32)cc1` , Fibroblast, Population Membrane Permeable-Phenotype (%) = 44

Log: Fibroblast, molecule CC(C)[C@H](CO)Nc1nc(Nc2cccc(Cl)c2)c2ncn(C(C)C)c2n1 [PURVALANOLA] , Population Membrane Permeable-Phenotype (%) = 23

---
For C[C@@H](Oc1cc(-n2cnc3ccc(CN4CCN(C)CC4)cc32)sc1C(N)=O)c1ccccc1C(F)(F)F [GSK-461364] on Fibroblast, measured Population Membrane Permeable-Phenotype (%) was 71

---

Tested on: HEK-293T
Assay: Multiplex assay against HEK293T
Format: toxicity, cell-based
Details: human, 12 h, 1 µM, compound concentration 1 uM, replicate 1
Field: Total Cell Count. Provide a value for each of the compounds that follow.
Numbers only.

Total Cell Count reported for this compound CC(C)C[C@H](NC(=O)[C@H](Cc1ccccc1)NC(=O)CNC(=O)CNC(=O)[C@@H](N)Cc1ccc(O)cc1)C(=O)O [ENKEPHALIN] : 175

For each entry beneath this line, provide reported Total Cell Count.
1. Cl.Cn1c2c(c3ccc(Cl)c(Cl)c31)C(C#N)C1(CCNCC1)NC2=O (stereo not drawn)
2. N#Cc1cccc(C(=O)Nc2cc(-c3ccccc3)nn2-c2ccccc2)c1
3. C=CC(=O)Nc1cc(-n2c(=O)ccc3cnc4ccc(-c5ccc(NS(C)(=O)=O)cc5)cc4c32)ccc1C
4. Cc1c(Nc2ccc(S(=O)(=O)N3CCN(C)CC3)cc2F)nc2ccc(Nc3cnn(C4CC4)c3)cn2c1=O
5. Oc1cccc(-c2nc(N3CCOCC3)c3oc4ncccc4c3n2)c1 [PI-103]

1: 650; 2: 315; 3: 174; 4: 566; 5: 269

Go through the items and report each one's Total Cell Count.
1. Cc1c(P(=S)(c2ccccc2)c2ccccc2)n2ccccc2[n+]1C/C=C/c1ccccc1.[Br-]
2. N#CCNC(=O)c1ccc(-c2ccnc(Nc3ccc(N4CCOCC4)cc3)n2)cc1 [MOMELOTINIB]

[211, 303]

---

System: U2OS
Assay: Multiplex assay against U2OS
Format: toxicity, cell-based
Details: human, 12 h, 1 µM, compound concentration 1 uM, replicate 2
Values of Population Hoechst High Intensity Objects (%) greater than or equal to 8% map to Criterion met; values below map to Criterion not met.

Example entries and their recorded answers appear below.
Please indicate if the recorded Population Hoechst High Intensity Objects (%) for CCOc1ccn(-c2ccc(F)cc2)c(=O)c1C(=O)Nc1ccc(Oc2ccnc(N)c2Cl)c(F)c1 [BMS-777607] meets or exceeds 8%.
Criterion met

Form field: Population Hoechst High Intensity Objects (%) at least 8%? Entry: CC(Cc1ccc(O)c(O)c1)C(C)Cc1ccc(O)c(O)c1 (configuration not stated) [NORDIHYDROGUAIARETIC ACID]
Criterion met

API: above_or_equal(metric=Population Hoechst High Intensity Objects (%), cutoff=8%) for item CN1C(=O)[C@@H](NC(=O)c2cc3ccccc3[nH]2)N=C(c2ccccc2)c2ccccc21 [DEVAZEPIDE]
Criterion not met

Is Population Hoechst High Intensity Objects (%) at least 8%? Consider `CC(C)c1cc(Nc2nc(N3CCC[C@H](N)C3)ncc2C(N)=O)cc(C(C)C)n1`
Criterion met

Given `C=CC(=O)Nc1cc(-n2c(=O)ccc3cnc4ccc(-c5ccc(NS(C)(=O)=O)cc5)cc4c32)ccc1C` , state whether its Population Hoechst High Intensity Objects (%) is at least 8%.
Criterion not met

Does the molecule CC[C@H](Nc1ncnc2[nH]cnc12)c1nc2cccc(F)c2c(=O)n1-c1ccccc1 [IDELALISIB] have recorded Population Hoechst High Intensity Objects (%) that is 8% or more?
Criterion met

Could you please find out whether `Cl.NC[C@@H]1O[C@H](C23CC4CC(CC(C4)C2)C3)Cc2c1ccc(O)c2O` has Population Hoechst High Intensity Objects (%) that meets 8% or exceeds it?
Criterion not met

# bool: Population Hoechst High Intensity Objects (%) of `Cc1c(P(=S)(c2ccccc2)c2ccccc2)n2ccccc2[n+]1C/C=C/c1ccccc1.[Br-]` >= 8%
Criterion met

Next:
Exam item: decide whether the reported Population Hoechst High Intensity Objects (%) for `CN(c1cc(C(F)(F)F)nc(OCCC(=O)O)n1)c1cccc2c1CCC2` is at least 8%.
Criterion met

Could you verify whether the entry `CCCCN(CC)c1nc(C)nc2c1c(C)cn2-c1c(C)cc(C)cc1C.Cl` shows Population Hoechst High Intensity Objects (%) of no less than 8%?
Criterion not met

Identify whether the reported Population Hoechst High Intensity Objects (%) of the following molecule is 8% or greater: CC(C)[C@H](CO)Nc1nc(Nc2cccc(Cl)c2)c2ncn(C(C)C)c2n1 [PURVALANOLA]
Criterion met

Entry Cl.Cn1c2c(c3ccc(Cl)c(Cl)c31)C(C#N)C1(CCNCC1)NC2=O (configuration not stated) : is its Population Hoechst High Intensity Objects (%) no less than 8%?
Criterion met

Values were extracted from ChEMBL document CHEMBL4689842.
